Let's look at some compounds and their measured pIC50.
- System: HepG2
- method-summary: Antiproliferative activity against human HepG2 cells assessed as inhibition of cell proliferation incubated for 48 hrs by MTT assay
- Assay type: functional, cell-based
- condition-context: HepG2, 48 h
In textbook form, pIC50 equals minus log to base ten of the concentration in mol/L.

Illustrative cases are given below, each with its answer.
COc1ccc(/C=C/CC(=O)OCCCOC(=O)[C@]23CCC(C)(C)C[C@H]2[C@H]2C(=O)C=C4[C@@]5(C)C=C(C#N)C(=O)C(C)(C)[C@@H]5CC[C@@]4(C)[C@]2(C)CC3)cc1OCc1ccc(B2OC(C)(C)C(C)(C)O2)cc1 : 5.44
CC1(C)CC[C@]2(C(=O)OCCCOc3ccc(NC(=O)OCc4ccc(B5OC(C)(C)C(C)(C)O5)cc4)cc3)CC[C@]3(C)[C@H](C(=O)C=C4[C@@]5(C)C=C(C#N)C(=O)C(C)(C)[C@@H]5CC[C@]43C)[C@@H]2C1 : 5.55

For COC(=O)[C@]12CCC(C)(C)C[C@H]1[C@H]1C(=O)C=C3[C@@]4(C)C=C(C#N)C(=O)C(C)(C)[C@@H]4CC[C@@]3(C)[C@]1(C)CC2 [BARDOXOLONE METHYL] , what is its reported pIC50?
6.30

----------
- method-summary: AUC (0 to infinity) in rat at 10 mg/kg, iv measured after 24 hrs by LC-MS/MS analysis
- Type: ADME, organism-based
- condition-context: in vivo
metric: AUC(0-inf) (ng·h/mL)
Kindly answer with a numeric value in ng·h/mL, unit omitted.

For CC1(C)CC[C@]2(C(=O)OCCCCOC(=O)c3ccc(O)cc3)CC[C@]3(C)[C@H](C(=O)C=C4[C@@]5(C)C=C(C#N)C(=O)C(C)(C)[C@@H]5CC[C@]43C)[C@@H]2C1 , what is its reported AUC(0-inf)?
20200

----------
- method-summary: Acute toxicity in ip dosed ICR mouse assessed as lethal dose
- Format: organism-based
- condition-context: in vivo
metric: LD50
Be sure to follow the number with its unit.

CC1(C)CC[C@]2(C(=O)OCCCCOC(=O)c3ccc(OCc4ccc(B5OC(C)(C)C(C)(C)O5)cc4)cc3)CC[C@]3(C)[C@H](C(=O)C=C4[C@@]5(C)C=C(C#N)C(=O)C(C)(C)[C@@H]5CC[C@]43C)[C@@H]2C1 : 91.2 mg/kg

For COC(=O)[C@]12CCC(C)(C)C[C@H]1[C@H]1C(=O)C=C3[C@@]4(C)C=C(C#N)C(=O)C(C)(C)[C@@H]4CC[C@@]3(C)[C@]1(C)CC2 [BARDOXOLONE METHYL] , what is its reported LD50?
61.7 mg/kg

----------
- method-summary: Cytotoxicity against human GES1 cells assessed as inhibition of cell proliferation incubated for 48 hrs by MTT assay
- Format: toxicity, cell-based
metric: IC50 at 48 h

Illustrative cases are given below, each with its answer.
COc1cc(/C=C/CC(=O)OCCCOC(=O)[C@]23CCC(C)(C)C[C@H]2[C@H]2C(=O)C=C4[C@@]5(C)C=C(C#N)C(=O)C(C)(C)[C@@H]5CC[C@@]4(C)[C@]2(C)CC3)ccc1OCc1ccc(B2OC(C)(C)C(C)(C)O2)cc1 : 4.2 µM
CC1(C)CC[C@]2(C(=O)OCCCOC(=O)c3ccc(OCc4ccc(B5OC(C)(C)C(C)(C)O5)cc4)cc3)CC[C@]3(C)[C@H](C(=O)C=C4[C@@]5(C)C=C(C#N)C(=O)C(C)(C)[C@@H]5CC[C@]43C)[C@@H]2C1 : 2.7 µM

Continue with the next compound.
For COC(=O)[C@]12CCC(C)(C)C[C@H]1[C@H]1C(=O)C=C3[C@@]4(C)C=C(C#N)C(=O)C(C)(C)[C@@H]4CC[C@@]3(C)[C@]1(C)CC2 [BARDOXOLONE METHYL] , what is its reported IC50 at 48 h?
0.4 µM
